target_or_system: T1, human G-protein-coupled receptor family C group 5 member D (GPRC5D) (human, UniProt Q9NZD1 1-345)
T1 construct: whole, on cells; also called human GPRC5D protein
T1 sequence (Q9NZD1 whole entry): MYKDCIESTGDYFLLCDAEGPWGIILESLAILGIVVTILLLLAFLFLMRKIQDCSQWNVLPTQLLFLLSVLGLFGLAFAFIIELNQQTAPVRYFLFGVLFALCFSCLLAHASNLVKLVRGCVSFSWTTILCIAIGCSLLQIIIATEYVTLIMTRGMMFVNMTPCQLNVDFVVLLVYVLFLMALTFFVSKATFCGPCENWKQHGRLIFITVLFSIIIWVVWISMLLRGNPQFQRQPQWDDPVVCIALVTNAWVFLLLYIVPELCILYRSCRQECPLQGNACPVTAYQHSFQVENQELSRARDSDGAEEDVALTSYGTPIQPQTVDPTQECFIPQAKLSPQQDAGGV
assay_method_text: FACS, NCI-H929 cells
Overview of reported Bottom across a group of binders:
// return a plain number; no unit text

Worked examples follow.
34-H1L1 (antibody, V domains shown, humanized 34D3H1, VH v1 x VL v1) VH: EVQLVESGGGLVKPGGSLRLSCAASGFTFSSYGMSWVRQAPGKGLEWVSTISSGGSYTYYPDSVKGRFTISRDNAKNSLYLQMNSLRAEDTAVYYCARQGGDAMDYWGQGTLVTVSS VL: DIQMTQSPSSLSASVGDRVTITCRASQSINNNLHWYQQKPGKAPKLLIYYASQSISGVPSRFSGSGSGTDFTLTISSLQPEDFATYYCQQSNSRLTFGGGTKVEIK = 199
34-XI (antibody, V domains shown, also called 34D3H1 (chimeric)) VH: EVHLVESGGDLVKPGGSLKLSCAASGFTFSSYGMSWVRQTPDKRLEWVATISSGGSYTYYPDSVKGRFTISRDNAKNTLNLQMSSLKSEDTAMYYCARQGGDAMDYWGQGTSVTVSS VL: DIVLTQSPATLSVTPGDSVSLSCRASQSINNNLHWYQQKSHESPRLLIKYASQSISGIPSRFSGSGSGTDFTLSINSVETEDFGMYFCQQSNSRLTFGAGTKLELK = 181

## Task Endpoint output: Bottom of 6G10D9-XI (antibody, V domains shown, also called 6G10D9 (chimeric); 6G1009-X1) VH: QVQLQQSGAELARPGASVKMSCKASGYTFTTYTMHWVKQRPGQGLEWLGYINPSSGYTNYNQKFKDKATLTAGKSSSTAYMQLSSLTSEDSAVYYCASLRSRGYFDYWGQGTTLTVSS VL: DIVMTQSQTFMSTSVGDRVRITCKASQNVGTAVVWYQQKTGQSPRLLIYSASNRYTGVPDRFTGSGSGTDFTLTISNMQSEDLADFFCQQYSSYPYTFGGGTKLEIK . Value?
## Result 269
